Tested on: Mus musculus
Assay: Antidiabetic activity in CMC-Na loaded ddY mouse assessed as inhibition of gastric emptying at 200 mg/kg, po administered 30 mins before administration of test meal measured after 30 mins
Format: functional
Conditions: Stomach
Listed compounds paired with reported inhibition in vivo at 200 mg/kg
Report the figure in % without appending any unit label.

Molecule	inhibition in vivo at 200 mg/kg, %
Oc1ccc([C@H]2c3c(O)cc(O)cc3[C@H]3c4c(cc(O)c5c4[C@H]2[C@@H](c2cc(O)cc4c2[C@@H](c2cc(O)cc(O)c2)[C@H](c2ccc(O)cc2)O4)[C@@H]5c2ccc(O)cc2)O[C@@H]3c2ccc(O)cc2)cc1	8.7
Oc1ccc([C@H]2c3c(O)cc(O)cc3[C@@H]3c4c(cc(O)cc4[C@H]2O)O[C@H]3c2ccc(O)cc2)cc1	24.8
Oc1ccc([C@H]2c3c(O)cc(O)cc3[C@@H]3c4c(cc(O)cc4[C@@H]2[C@H]2c4cc(O)cc5c4[C@@H](c4cc(O)cc(O)c4[C@@H]2c2ccc(O)cc2)[C@H](c2ccc(O)cc2)O5)O[C@H]3c2ccc(O)cc2)cc1	21.1
Oc1ccc([C@H]2Oc3cc(O)cc4c3[C@@H]2c2cc(O)cc3c2[C@@H](c2cc(O)cc5c2[C@@H]4[C@H](c2ccc(O)cc2)O5)[C@H](c2ccc(O)cc2)O3)cc1	15.4

Alright, here's another compound for you.
QUERY: Report inhibition in vivo at 200 mg/kg for Oc1ccc([C@@H]2c3c(O)cc(O)cc3[C@@H]3c4c(cc(O)cc4[C@H]2[C@@H]2c4cc(O)cc5c4[C@@H](c4cc(O)cc(O)c4[C@H]2c2ccc(O)cc2)[C@H](c2ccc(O)cc2)O5)O[C@H]3c2ccc(O)cc2)cc1
RESULT: 29

----------
Biological target: Sucrase-isomaltase, intestinal (Rattus norvegicus) (UniProt P23739)
Sequence (P23739 1-1013 limits assumed): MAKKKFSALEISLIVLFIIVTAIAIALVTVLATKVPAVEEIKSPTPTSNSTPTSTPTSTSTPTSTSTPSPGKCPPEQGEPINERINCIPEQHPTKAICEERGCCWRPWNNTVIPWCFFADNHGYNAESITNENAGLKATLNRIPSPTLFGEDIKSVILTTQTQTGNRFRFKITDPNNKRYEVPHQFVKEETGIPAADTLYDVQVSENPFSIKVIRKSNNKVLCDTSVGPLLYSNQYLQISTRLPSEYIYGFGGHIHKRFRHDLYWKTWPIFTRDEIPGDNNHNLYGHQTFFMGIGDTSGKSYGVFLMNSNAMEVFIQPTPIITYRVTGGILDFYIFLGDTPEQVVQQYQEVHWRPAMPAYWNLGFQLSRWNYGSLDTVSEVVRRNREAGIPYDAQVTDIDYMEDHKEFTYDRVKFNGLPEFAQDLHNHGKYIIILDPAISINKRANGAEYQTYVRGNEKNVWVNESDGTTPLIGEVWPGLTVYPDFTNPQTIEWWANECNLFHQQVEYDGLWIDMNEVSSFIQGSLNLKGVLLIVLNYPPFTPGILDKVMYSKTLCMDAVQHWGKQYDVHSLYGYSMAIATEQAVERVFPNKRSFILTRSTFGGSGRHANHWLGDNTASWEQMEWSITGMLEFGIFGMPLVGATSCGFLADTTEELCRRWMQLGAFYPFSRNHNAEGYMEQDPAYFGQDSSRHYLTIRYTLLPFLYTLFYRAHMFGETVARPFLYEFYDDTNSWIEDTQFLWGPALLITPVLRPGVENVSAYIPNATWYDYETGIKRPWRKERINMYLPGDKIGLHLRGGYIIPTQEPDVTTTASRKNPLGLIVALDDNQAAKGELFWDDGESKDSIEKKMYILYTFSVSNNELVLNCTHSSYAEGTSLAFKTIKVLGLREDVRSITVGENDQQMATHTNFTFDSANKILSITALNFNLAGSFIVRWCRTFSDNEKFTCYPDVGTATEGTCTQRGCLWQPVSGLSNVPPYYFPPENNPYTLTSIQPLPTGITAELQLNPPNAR
Sequence (P23739 1014-1841 limits assumed): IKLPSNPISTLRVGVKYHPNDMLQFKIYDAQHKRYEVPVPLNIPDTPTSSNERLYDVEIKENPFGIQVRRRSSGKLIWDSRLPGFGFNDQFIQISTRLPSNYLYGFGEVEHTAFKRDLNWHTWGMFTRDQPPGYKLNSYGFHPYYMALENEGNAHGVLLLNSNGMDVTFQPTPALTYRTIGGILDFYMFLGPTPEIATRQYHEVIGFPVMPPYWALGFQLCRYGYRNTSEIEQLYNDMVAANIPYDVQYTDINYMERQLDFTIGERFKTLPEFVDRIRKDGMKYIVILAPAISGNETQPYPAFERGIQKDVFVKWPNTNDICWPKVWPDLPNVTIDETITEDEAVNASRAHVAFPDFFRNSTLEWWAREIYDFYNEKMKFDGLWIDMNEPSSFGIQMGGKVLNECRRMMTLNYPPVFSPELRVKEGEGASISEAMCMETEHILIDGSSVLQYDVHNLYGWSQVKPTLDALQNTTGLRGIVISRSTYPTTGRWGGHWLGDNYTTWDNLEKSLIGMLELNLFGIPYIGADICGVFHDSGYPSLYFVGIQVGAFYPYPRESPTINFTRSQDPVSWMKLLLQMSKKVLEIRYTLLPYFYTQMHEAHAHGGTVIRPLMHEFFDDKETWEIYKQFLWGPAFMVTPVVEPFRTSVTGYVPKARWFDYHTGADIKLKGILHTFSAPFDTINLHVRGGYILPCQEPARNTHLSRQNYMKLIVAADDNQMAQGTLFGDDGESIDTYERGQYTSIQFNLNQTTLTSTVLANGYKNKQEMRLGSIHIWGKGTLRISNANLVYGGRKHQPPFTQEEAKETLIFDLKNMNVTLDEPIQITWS
Test: Inhibition of alpha-glucosidase activity of sucrase in rat small intestinal brush border membrane fraction using […] as substrate at 400 uM after 30 mins
Measured parameter: inhibition (%)
State the answer as a number, implicitly in %.

Some compounds with recorded inhibition:
> print(dat)
                                   molecule  reading.unit  number
1  Oc1ccc([C@H]2c3c(O)cc(O)cc3[C@@H]3c4c(cc(O)cc4[C@H]2O)O[C@H]3c2ccc(O)cc2)cc1             %    36.6
2  OC[C@H]1O[C@@H](c2c(O)cc(O)cc2/C=C/c2ccc(O)cc2)[C@H](O)[C@@H](O)[C@@H]1O             %    14.7
3  O=C1c2cc(O)cc(O)c2[C@H](c2ccc(O)cc2)[C@H](O)c2cc(O)cc(O)c21             %    -0.8

QUERY: Look up and report measured inhibition for this entry: C[C@H](O)[C@H]1OC(=O)c2cc(O)cc(O)c2[C@@H]1c1ccc(O)cc1
RESULT: 30.3

QUERY: Answer with the recorded inhibition for the compound listed here: CC(=O)[C@@H]1OC(=O)c2cc(O)cc(O)c2[C@@H]1c1ccc(O)cc1
RESULT: 6.4

QUERY: Determine from records and report inhibition for Oc1ccc(/C=C/c2cc(O)cc(O)c2)cc1
RESULT: 35.7

QUERY: Assign inhibition to the following record: OC[C@H]1O[C@@H](c2c(O)cc(O)cc2/C=C\c2ccc(O)cc2)[C@H](O)[C@@H](O)[C@@H]1O
RESULT: 26.8

QUERY: Return reported inhibition. Input compound: OC[C@H]1O[C@@H](Oc2cc(O)cc(/C=C/c3ccc(O)cc3)c2)[C@H](O)[C@@H](O)[C@@H]1O
RESULT: 48

QUERY: Quick one: give measured inhibition for Oc1ccc([C@@H]2c3cc(O)ccc3[C@@H]3c4c(O)cc(O)cc4[C@@H]2c2c(O)cc(O)c4c2[C@@H]3[C@@H](c2ccc(O)cc2)[C@@H]4c2cc(O)cc(O)c2)cc1
RESULT: 37.8

QUERY: For the compound CC(=O)[C@H]1OC(=O)c2cc(O)cc(O)c2[C@@H]1c1ccc(O)cc1 , give its measured inhibition value.
RESULT: 3.7

----------
Target: Lysosomal alpha-glucosidase (Rattus norvegicus)
Test: Inhibition of alpha-glucosidase activity of maltase in rat small intestinal brush border membrane fraction using maltose as substrate at 400 uM after 30 mins
Measured parameter: inhibition (%)
Give the value in % but do not write % after it.

Example entries and their recorded answers appear below.
Molecule	Experimental system	Measured parameter	Reading unit	Number
CC(=O)[C@@H]1OC(=O)c2cc(O)cc(O)c2[C@@H]1c1ccc(O)c(O)c1 [PHAYOMPHENOL B1]	Lysosomal alpha-glucosidase (Rattus norvegicus)	inhibition	%	20.9
Oc1ccc([C@H]2c3c(O)cc(O)cc3[C@@H]3c4c(cc(O)cc4[C@H]2O)O[C@H]3c2ccc(O)cc2)cc1 [BALANOCARPOL]	Lysosomal alpha-glucosidase (Rattus norvegicus)	inhibition	%	29.4
CC(=O)[C@H]1OC(=O)c2cc(O)cc(O)c2[C@@H]1c1ccc(O)cc1 [PHAYOMPHENOL A2]	Lysosomal alpha-glucosidase (Rattus norvegicus)	inhibition	%	19.6

QUERY: Please tell me the measured inhibition for O=C1c2cc(O)cc(O)c2[C@H](c2ccc(O)cc2)[C@H](O)c2cc(O)cc(O)c21 ; system: Lysosomal alpha-glucosidase (Rattus norvegicus).
RESULT: 6.8

QUERY: Name the recorded inhibition of CC(=O)[C@@H]1OC(=O)c2cc(O)cc(O)c2[C@@H]1c1ccc(O)cc1 [PHAYOMPHENOL A1] , assay system Lysosomal alpha-glucosidase (Rattus norvegicus).
RESULT: 4

QUERY: Under Lysosomal alpha-glucosidase (Rattus norvegicus): report inhibition of Oc1ccc([C@@H]2c3c(O)cc(O)cc3[C@@H]3c4c(cc(O)c5c4[C@@H]2[C@@H](c2ccc(O)cc2)[C@@H]5c2cc(O)cc(O)c2)O[C@H]3c2ccc(O)cc2)cc1 [PAUCIFLOROL A] .
RESULT: 44

QUERY: For Lysosomal alpha-glucosidase (Rattus norvegicus), give inhibition of the listed molecule: OC[C@H]1O[C@@H](c2c(O)cc(O)cc2/C=C\c2ccc(O)cc2)[C@H](O)[C@@H](O)[C@@H]1O
RESULT: 36.6

QUERY: Find inhibition for Oc1ccc(/C=C/c2cc(O)cc(O)c2)cc1 [RESVERATROL] on Lysosomal alpha-glucosidase (Rattus norvegicus) and write it down.
RESULT: 36.9

QUERY: # assay system Lysosomal alpha-glucosidase (Rattus norvegicus): give inhibition of OC[C@H]1O[C@@H](Oc2cc(O)cc(/C=C/c3ccc(O)cc3)c2)[C@H](O)[C@@H](O)[C@@H]1O [PICEID]
RESULT: 38.2

QUERY: Lab note: record inhibition of Oc1ccc([C@@H]2c3cc(O)ccc3[C@@H]3c4c(O)cc(O)cc4[C@@H]2c2c(O)cc(O)c4c2[C@@H]3[C@@H](c2ccc(O)cc2)[C@@H]4c2cc(O)cc(O)c2)cc1 [VATICANOL G] tested on Lysosomal alpha-glucosidase (Rattus norvegicus).
RESULT: 32.2

----------
Each entry below carries its recorded plasma glucose level at 100 mg/kg.
Test system: Mus musculus
Experiment: Antihyperglycemic activity in ddY mouse assessed as sucrose-induced plasma glucose level at 100 mg/kg, po administered 30 mins before sucrose challenge measured after 0.5 hrs (reference value: 220.5 +/- 16.9 mg/dl)
A number alone suffices; assume mg/dL.

Recorded plasma glucose level at 100 mg/kg, per entry:
Compound	Reading unit	Number
Oc1ccc([C@@H]2c3c(O)cc(O)cc3[C@@H]3c4c(cc(O)cc4[C@H]2[C@@H]2c4cc(O)cc5c4[C@@H](c4cc(O)cc(O)c4[C@H]2c2ccc(O)cc2)[C@H](c2ccc(O)cc2)O5)O[C@H]3c2ccc(O)cc2)cc1	mg/dL	192
Oc1ccc([C@H]2c3c(O)cc(O)cc3[C@@H]3c4c(cc(O)cc4[C@H]2O)O[C@H]3c2ccc(O)cc2)cc1 [BALANOCARPOL]	mg/dL	228
CC(=O)[C@@H]1OC(=O)c2cc(O)cc(O)c2[C@@H]1c1ccc(O)cc1 [PHAYOMPHENOL A1]	mg/dL	189

QUERY: Identify measured plasma glucose level at 100 mg/kg associated with OC[C@H]1O[C@@H](c2c(O)cc(O)cc2/C=C/c2ccc(O)cc2)[C@H](O)[C@@H](O)[C@@H]1O
RESULT: 184

QUERY: In one line, give reported plasma glucose level at 100 mg/kg of the entry Oc1ccc([C@H]2c3c(O)cc(O)cc3[C@H]3c4c(cc(O)c5c4[C@H]2[C@@H](c2cc(O)cc4c2[C@@H](c2cc(O)cc(O)c2)[C@H](c2ccc(O)cc2)O4)[C@@H]5c2ccc(O)cc2)O[C@@H]3c2ccc(O)cc2)cc1 [HEMSLEYANOL D] .
RESULT: 174

QUERY: Return the recorded plasma glucose level at 100 mg/kg value; entry: Oc1ccc([C@H]2Oc3cc(O)cc4c3[C@@H]2c2cc(O)cc3c2[C@@H](c2cc(O)cc5c2[C@@H]4[C@H](c2ccc(O)cc2)O5)[C@H](c2ccc(O)cc2)O3)cc1
RESULT: 151

QUERY: Name the recorded plasma glucose level at 100 mg/kg of the item Oc1ccc(/C=C/c2cc(O)cc(O)c2)cc1 [RESVERATROL] in your answer.
RESULT: 218

QUERY: Query plasma glucose level at 100 mg/kg for CC(=O)[C@H]1OC(=O)c2cc(O)cc(O)c2[C@@H]1c1ccc(O)cc1 [PHAYOMPHENOL A2]
RESULT: 231

QUERY: For the compound Oc1ccc([C@H]2c3c(O)cc(O)cc3[C@@H]3c4c(cc(O)cc4[C@@H]2[C@H]2c4cc(O)cc5c4[C@@H](c4cc(O)cc(O)c4[C@@H]2c2ccc(O)cc2)[C@H](c2ccc(O)cc2)O5)O[C@H]3c2ccc(O)cc2)cc1 , give its reported plasma glucose level at 100 mg/kg.
RESULT: 182
